Tested on: intracellular proteome of ENR+CD and ENR organoids
Experiment: LC-MS/MS TMT proteomics of ENR+CD versus ENR organoids
Assay type: cell-based, C57BL/6 mice
Details: up = enriched in ENR+CD, down = enriched in ENR; FDR<0.05 and log fold change cut-off
ATTRIBUTE MEASURED: change

Prompt: For the molecule shown here, P48036 (protein, UniProt P48036 1-319, looked up, full-length) MATRGTVTDFPGFDGRADAEVLRKAMKGLGTDEDSILNLLTSRSNAQRQEIAQEFKTLFGRDLVDDLKSELTGKFEKLIVAMMKPSRLYDAYELKHALKGAGTDEKVLTEIIASRTPEELSAIKQVYEEEYGSNLEDDVVGDTSGYYQRMLVVLLQANRDPDTAIDDAQVELDAQALFQAGELKWGTDEEKFITIFGTRSVSHLRRVFDKYMTISGFQIEETIDRETSGNLEQLLLAVVKSIRSIPAYLAETLYYAMKGAGTDDHTLIRVVVSRSEIDLFNIRKEFRKNFATSLYSMIKGDTSGDYKKALLLLCGGEDD , give the reported change.
Completion: up
